- TARGET: hcTnI (human cardiac troponin I) (Homo sapiens, UniProt P19429 P19429:2-210)
- Sequence (P19429 2-210, one chain of several): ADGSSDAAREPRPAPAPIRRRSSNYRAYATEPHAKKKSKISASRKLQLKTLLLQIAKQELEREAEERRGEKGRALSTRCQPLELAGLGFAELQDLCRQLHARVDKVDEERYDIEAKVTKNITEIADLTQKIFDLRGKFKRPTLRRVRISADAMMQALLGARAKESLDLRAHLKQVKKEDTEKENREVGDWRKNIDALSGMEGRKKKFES
- ASSAY_NOTES: SPR
PROPERTY_LABEL: Kd (nM)
The answer is to be given in nM; state only the numeric part.

Q. Give recorded Kd. Tn2 (ssDNA) DNA: GGCAGGAAGACAAACACCCAACCGAGGATGCAACGCTTGTTGTCATACTGTGATGTTGGTCTGTGGTGCTGT
A. 19.8
